// data source = patent US20220307010A1

target_or_system: T1, TIGIT (T cell immunoreceptor with Ig and ITIM domains) (human, UniProt Q495A1 22-141, limits assumed)
T1 construct: also called hTIGIT; human TIGIT
T1 sequence (looked up): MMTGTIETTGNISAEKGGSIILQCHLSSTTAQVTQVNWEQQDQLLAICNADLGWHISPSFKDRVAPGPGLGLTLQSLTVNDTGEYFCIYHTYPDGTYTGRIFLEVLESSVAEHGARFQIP
method_description: SPR, VHH-V5-His
reported_property: koff (s⁻¹)

TIGIT-30-49 VHH-V5-His (VHH, not shown: V5-His tag) VHH: EVQLVESGGGLVQAGGSLRLSCAASGNIFSRYIMGWFRQAPGKEREWVAGISNGGTTKYADSVKGRFTISADNAKNTVYLQMNSLKPEDTAVYYCAQGWKIVPTNWGQGTQVTVSS :: 0.08
TIGIT-29-06 VHH-V5-His (VHH, not shown: V5-His tag) VHH: EVQLVESGGGLVQAGGSLRLSCAASGGTFRSYVMGWFRQAPGKEREWVATINSSGSRTYYADSVKGRFTISADNAKNTVYLQMNSLKPEDTAVYYCAARPNYRDYEYWGQGTQVTVSS :: 0.02

(P) TIGIT-29-18 VHH-V5-His (VHH, not shown: V5-His tag) VHH: EVQLVESGGGLVQAGGSLRLSCAASGSTFSNYAMGWFRQAPGKEREFVSAINSSGSRTYYADSVKGRFTISADNAKNTVYLQMNSLKPEDTAVYYCAARLWGTWTAGDYDYWGQGTQVTVSS
(Q) TIGIT-29-30 VHH-V5-His (VHH, not shown: V5-His tag) VHH: EVQLVESGGGLVQAGGSLRLSCAASGFTFSSYAMGWFRQAPGKEREFVAAITWSGTRTDYADSVKGRFTISADNAKNTVYLQMNSLKPEDTAVYYCAAAAWRYSEYDYWGQGTQVTVSS
Input line: Please compare: P and Q . Report which one has the smaller koff value. Write down the label attached to your selection.
Output line: P
(P: 0.007 s⁻¹, Q: 0.08 s⁻¹)
